assay: Human serum stability assay (RP-HPLC); settings: human, serum
Where a SMILES comes first, the peptide text is derived from it. Bridges are numbered along the chain shown (N, C = ends). [ ]: non-standard residue; d: D form. AllylGly = C=CC[C@H](N)C(=O)O
measured.quantity: remaining at 48 h, 200 µM

- molecule: "CC(C)C[C@@H]1NC(=O)[C@H](Cc2ccccc2)NC(=O)[C@H](CS)NC(=O)[C@H](CC(=O)O)NC(=O)[C@H](C(C)C)NC(=O)[C@@H](N)CC=CC[C@@H](C(=O)N[C@H](C(=O)O)[C@@H](C)O)NC(=O)[C@H](CCC(=O)O)NC(=O)[C@H]([C@@H](C)O)NC(=O)[C@@H]2CCCN2C(=O)[C@H](CCCNC(=N)N)NC(=O)[C@H](CO)NC1=O [Peptide 42] (H-[AllylGly]VDCFLSRPTE[AllylGly]T-OH; staple 1-12)"
  result: "~90%"
